test system: SARS-CoV-2; assay: Cytopathic effect (CPE) suppression effect confirmation test using HEK293T/ACE2-TMPRSS2 cells; type: cell-based; details: Severe acute respiratory syndrome coronavirus 2, HEK-293T, 72 h, read-out: EC50 (50% SARS-CoV-2 infected cell death inhibitory concentration), class, HEK293T/ACE2-TMPRSS2 cells, CPE suppression, CellTiter-Glo 2.0 after 3 days culture
pEC50: −log10 of the molar value.
// reported pEC50 per item

Recorded pEC50, per entry:
COMPOUND: Cc1cnnc(-n2c(=O)c(Cc3cc(F)c(F)c(F)c3)c(N3Cc4ccccc4C3)n(CC#N)c2=O)c1 [Compound I-039]
EXPERIMENTAL_ENDPOINT: pEC50
RESULT: > 7.00
//
COMPOUND: N#CCn1c(Cl)c(-c2ccc(F)c(Cl)c2)c(=O)n(-c2cnc3cc(Cl)ccn23)c1=O [Compound I-126]
EXPERIMENTAL_ENDPOINT: pEC50
RESULT: 5.30 to 6.00
//
COMPOUND: N#CCn1c(N2CC3(CCOC3)C2)c(Cc2cc(F)c(F)c(F)c2)c(=O)n(-c2cncc(Cl)c2)c1=O [Compound I-059]
EXPERIMENTAL_ENDPOINT: pEC50
RESULT: > 7.00

Record lookup: for SARS-CoV-2, what pEC50 belongs to Cc1cc(-n2c(=O)c(-c3ccc(F)c(Cl)c3)c(-c3ccc(C4CC4)cc3)n(CC#N)c2=O)cc(=O)[nH]1 [Compound I-183] ? > 7.00

Field entry: N#CCn1c(N2CC3CNC(=O)C3C2)c(-c2ccc(F)c(Cl)c2)c(=O)n(-c2cncc(Cl)c2)c1=O (racemic) [Compound I-062] > 7.00

Please give the result for Cc1cc(-n2c(=O)c(-c3cc(F)c(F)c(Cl)c3)c(N3CC4(CCOCC4)C3)n(CC#N)c2=O)cc(=O)[nH]1 [Compound I-032] too. 6.00 to 7.00

// query: Cc1cncc(-n2c(=O)c(-c3ccc(F)c(Cl)c3)c(Oc3cccc4[nH]ccc34)n(CC#N)c2=O)c1 [Compound I-028] > 7.00

====

target: Recombinant SARS-CoV-2 3CL Protease (Severe acute respiratory syndrome coronavirus 2 (2019-nCoV) (SARS-CoV-2), UniProt P0DTD1); experiment: biochemical; type: biochemical; details: 50% SARS-CoV-2 3CL protease inhibitory concentration; read-out: IC50
pIC50: −log10 of the molar value.
EXPERIMENTAL_ENDPOINT: pIC50

COMPOUND: N#CCn1c(N2Cc3ccccc3C2)c(C(=O)c2cc(F)c(F)c(F)c2)c(=O)n(-c2cncc(Cl)c2)c1=O [Compound I-165]
EXPERIMENTAL_ENDPOINT: pIC50
RESULT: 5.42
--
COMPOUND: Cc1cncc(-n2c(=O)c(Cc3cc(F)c(F)c(F)c3)c(N3CCC4(CCC(O)C4)C3)n(CC#N)c2=O)c1 (racemic) [Compound I-110]
EXPERIMENTAL_ENDPOINT: pIC50
RESULT: > 8.00

Give its pIC50 value. Item: Cc1cnnc(-n2c(=O)c(-c3ccc(F)c(Cl)c3)c(N3CC4(CCOC4)C3)n(CC#N)c2=O)c1 [Compound I-160] > 8.00

Then this compound: Cc1cncc(-n2c(=O)c(-c3ccc(F)c(Cl)c3)c(N3CCC(C(F)(F)F)CC3)n(CC#N)c2=O)n1 [Compound I-199] > 8.00

====

biological target: Recombinant SARS-CoV-2 3CL Protease (Severe acute respiratory syndrome coronavirus 2 (2019-nCoV) (SARS-CoV-2)); assay: biochemical; type: biochemical; settings: 50% SARS-CoV-2 3CL protease inhibitory concentration; read-out: IC50
pIC50: −log10 of the molar value.
EXPERIMENTAL_ENDPOINT: pIC50

// below: answered compounds
COMPOUND: N#CCn1c(N2CC3(CCOC3)C2)c(-c2ccc(F)c(Cl)c2)c(=O)n(-c2cnc3ccc(F)cn23)c1=O
pIC50: > 8.00
//
COMPOUND: Cc1cncc(-n2c(=O)c(-c3ccc(F)c(Cl)c3)c(-c3ccc(C(=O)O)cc3)n(CC#N)c2=O)c1
pIC50: < 7.00
//
COMPOUND: N#CCn1c(-c2cc3ccccc3s2)c(Sc2cc(F)c(F)c(F)c2)c(=O)n(-c2cncc(Cl)c2)c1=O
pIC50: 7.00 to 8.00
//
COMPOUND: N#CCn1c(N2CC(O)(C(F)F)C2)c(-c2ccc(F)c(Cl)c2)c(=O)n(-c2cncc(C(F)F)n2)c1=O
pIC50: > 8.00
//
COMPOUND: C[C@@H](C#N)n1c(N2CC[C@@](O)(C(F)F)C2)c(-c2ccc(F)c(Cl)c2)c(=O)n(-c2cncc(C#N)c2)c1=O (single isomer, unassigned)
pIC50: > 8.00

I would be grateful if you could share the reported pIC50 for N#CCn1c(N2CC(n3cccn3)C2)c(-c2ccc(F)c(Cl)c2)c(=O)n(-c2cncc(Cl)c2)c1=O . > 8.00

====

IC50 values for the molecules below.
biological target: Recombinant SARS-CoV-2 3CL Protease (Severe acute respiratory syndrome coronavirus 2 (2019-nCoV) (SARS-CoV-2)); assay: biochemical; format: biochemical; conditions: 50% SARS-CoV-2 3CL protease inhibitory concentration; read-out: IC50

Here are 8 molecules together with their reported answers.
MOLECULE: N#CCn1c(N2CC3(CCOC3)C2)c(-c2ccc(F)c(Cl)c2)c(=O)n(-c2cc(Cl)[nH]c(=O)c2)c1=O
IC50: 10 to 100 nM
//
MOLECULE: N#CCn1c(N2CC(OC(F)F)C2)c(-c2ccc(F)c(C#N)c2)c(=O)n(-c2cncc(Cl)c2)c1=O
IC50: < 10 nM
//
MOLECULE: N#CCn1c(N2CC3(C2)CC(F)(F)C3)c(-c2ccc(F)c(Cl)c2)c(=O)n(-c2cc(C(F)(F)F)cnn2)c1=O
IC50: < 10 nM
//
MOLECULE: N#CCn1c(N2CC(OC(F)(F)F)C2)c(-c2ccc(F)c(Cl)c2)c(=O)n(-c2cncc(OCF)n2)c1=O
IC50: < 10 nM
//
MOLECULE: N#CCn1c(N2CCC(C(F)F)CC2)c(-c2ccc(F)c(C#N)c2)c(=O)n(-c2cncc(Cl)c2)c1=O
IC50: < 10 nM
//
MOLECULE: Cc1cc(-n2c(=O)c(-c3ccc(F)c(Cl)c3)c(N3CC4(C3)CC(F)(F)C4)n(CC#N)c2=O)c[n+]([O-])c1
IC50: < 10 nM
//
MOLECULE: N#CCn1c(Cl)c(-c2ccc(F)c(Cl)c2)c(=O)n(-c2cncc(Cl)c2)c1=O
IC50: 10 to 100 nM
//
MOLECULE: N#CCn1c(C2CCC(F)(F)CC2)c(-c2ccnc(C(F)(F)F)c2)c(=O)n(-c2cncc(Cl)c2)c1=O
IC50: 10 to 100 nM

Fill blank: measured IC50 of the molecule N#CCn1c(N2Cc3ccccc3C2)c(-c2cccc(Cl)c2)c(=O)n(C2CCn3cnnc32)c1=O (racemic) is ____. > 100 nM

Record: Cc1cncc(-n2c(=O)c(Cc3cc(F)c(F)c(F)c3)c(Cl)n(CC#N)c2=O)c1 10 to 100 nM

Another molecule to check: N#CCn1c(N2CC3(CCOC3)C2)c(-c2ccc(F)c(Cl)c2)c(=O)n(-c2cncc(Cl)n2)c1=O < 10 nM

N#CCn1c(N2Cc3ccccc3C2)c(Cc2cc(F)c(F)c(F)c2)c(=O)n(-c2cnc3ccccn23)c1=O ? < 10 nM

And for Cc1cncc(-n2c(=O)c(Cc3cc(F)c(F)c(F)c3)c(N3CC4(C3)CC(F)(F)C4)n(CC#N)c2=O)c1 ? < 10 nM

Thanks! And CC(C)OC1CN(c2c(-c3ccc(F)c(Cl)c3)c(=O)n(-c3cncc(Cl)c3)c(=O)n2CC#N)C1 ? < 10 nM

Now the same for N#CCn1c(N2CC(O)C2)c(-c2ccc(F)c(C(F)F)c2)c(=O)n(-c2cncc(C#N)c2)c1=O < 10 nM

Okay, and N#CCn1c(N2CC(F)(C3CC3)C2)c(-c2ccc(F)c(Cl)c2)c(=O)n(-c2cncc(OCF)c2)c1=O ? < 10 nM

====

biological target: Recombinant SARS-CoV-2 3CL Protease (Severe acute respiratory syndrome coronavirus 2 (2019-nCoV) (SARS-CoV-2), UniProt P0DTD1); test: biochemical; format: biochemical; details: 50% SARS-CoV-2 3CL protease inhibitory concentration; read-out: IC50
EXPERIMENTAL_ENDPOINT: IC50

// worked examples, IC50 included
COMPOUND: C[C@@H](C#N)n1c(N2CC[C@@](O)(C(F)F)C2)c(-c2ccc(F)c(C#N)c2)c(=O)n(-c2cncc(Cl)c2)c1=O (single isomer, unassigned)
IC50: < 0.01 µM
//
COMPOUND: N#CCn1c(CCC(F)F)c(-c2ccc(F)c(Cl)c2)c(=O)n(-c2cncc(Cl)c2)c1=O
IC50: < 0.01 µM
//
COMPOUND: N#CCn1c(N2CC[C@@](O)(C(F)F)C2)c(-c2ccc(F)c(Cl)c2)c(=O)n(-c2cncc(C#N)c2)c1=O
IC50: < 0.01 µM
//
COMPOUND: C[C@@]1(O)CCN(c2c(-c3ccc(F)c(Cl)c3)c(=O)n(-c3cncc(Cl)c3)c(=O)n2CC#N)C1 (single isomer, unassigned)
IC50: < 0.01 µM
//
COMPOUND: N#CCn1c(N2CC3(CCOC3)C2)c(Cc2cc(F)c(F)c(F)c2)c(=O)n(-c2cnc3cnccn23)c1=O
IC50: > 0.1 µM

Given Cc1c(-c2ccc(F)c(Cl)c2)c(=O)n(-c2cncc(Cl)c2)c(=O)n1CC#N , state its recorded IC50. < 0.01 µM

Similarly, N#CCn1c(N2C[C@@H]3[C@@H](O)[C@@H]3C2)c(-c2ccc(F)c(Cl)c2)c(=O)n(-c2cncc(Cl)c2)c1=O ? < 0.01 µM

// same read-out, input: CC(C)=Cc1c(-c2ccc(F)c(Cl)c2)c(=O)n(-c2cncc(Cl)c2)c(=O)n1CC#N < 0.01 µM

Next up: N#CCn1c(N2CC(C(F)(F)F)C2)c(-c2ccc(F)c(Cl)c2)c(=O)n(-c2cncc(OCF)c2)c1=O < 0.01 µM

Do the same for Cc1cncc(-n2c(=O)c(Cc3cc(F)c(F)c(F)c3)c(N3CCC(C(F)F)CC3)n(CC#N)c2=O)c1 please < 0.01 µM

What would you report for N#CCn1c(-c2ccc(C#N)nc2)c(-c2ccc(F)c(Cl)c2)c(=O)n(-c2cncc(Cl)c2)c1=O ? < 0.01 µM

Then this compound: N#CCn1c(C2(O)CCC2)c(-c2ccc(F)c(Cl)c2)c(=O)n(-c2cncc(Cl)c2)c1=O 0.01 to 0.1 µM

Input N#CCn1c(N2CC(OC(F)F)C2)c(-c2ccc(F)c(C(F)F)c2)c(=O)n(-c2cncc(Cl)c2)c1=O < 0.01 µM

Same read-out for CCCCc1c(-c2ccc(F)cc2)n(CC#N)c(=O)n(-c2cncc(Cl)c2)c1=O ? 0.01 to 0.1 µM

The measured values listed here are drawn from patent US20250092056A1.
